The values you see were collected from paper PMC10714400.

What MIC K. pneumoniae NCTC418, full MH at pH 8.5 was measured for each of the following?
# System: K. pneumoniae NCTC418
# applied conditions: NCTC418, 4 h, pH 8.5
Where a SMILES comes first, the peptide text is derived from it. [ ]: non-standard residue; d: D form. Nleu = CC(C)CNCC(=O)O; Nlys = NCCCCNCC(=O)O
Numeric only. Scale: ug/mL

Exercise: Looking for the measured MIC K. pneumoniae NCTC418, full MH at pH 8.5 of CC(C)C[C@H](NC(=O)[C@H](CC(C)C)NC(=O)[C@H](CC(C)C)NC(=O)[C@H](CCCCN)NC(=O)[C@H](CC(C)C)NC(=O)[C@H](CC(C)C)NC(=O)CN(CCCCN)C(=O)[C@H](CC(C)C)NC(=O)[C@H](CC(C)C)NC(=O)CN(CCCCN)C(=O)CNCCCCN)C(N)=O [EB6, kkLLkLLKLLL] (H-[Nlys][Nlys]LL[Nlys]LLKLLL-NH2) , can you help?
Key: 12

Exercise: Input CC(C)C[C@H](NC(=O)[C@H](CC(C)C)NC(=O)[C@H](CC(C)C)NC(=O)[C@H](CCCCN)NC(=O)[C@H](CC(C)C)NC(=O)[C@H](CC(C)C)NC(=O)CN(CCCCN)C(=O)CN(CC(C)C)C(=O)CN(CC(C)C)C(=O)CN(CCCCN)C(=O)CNCCCCN)C(N)=O [EB5, kkllkLLKLLL] (H-[Nlys][Nlys][Nleu][Nleu][Nlys]LLKLLL-NH2)
Key: 24

Exercise: # iterate: CC(C)CN(CC(N)=O)C(=O)CN(CC(C)C)C(=O)CN(CC(C)C)C(=O)[C@H](CCCCN)NC(=O)CN(CC(C)C)C(=O)CN(CC(C)C)C(=O)[C@H](CCCCN)NC(=O)CN(CC(C)C)C(=O)CN(CC(C)C)C(=O)[C@H](CCCCN)NC(=O)[C@@H](N)CCCCN [EB8, KKllKllKlll] (H-KK[Nleu][Nleu]K[Nleu][Nleu]K[Nleu][Nleu][Nleu]-NH2)
Key: 16

----------
Answer each item with its documented MIC P. aeruginosa PAO1 […] 7.4.
# Tested on: P. aeruginosa PAO1
# applied conditions: Table S2; […] MH, pH 7.4
Where a SMILES comes first, the peptide text is derived from it. [ ]: non-standard residue; d: D form. Nleu = CC(C)CNCC(=O)O; Nlys = NCCCCNCC(=O)O
I only need the number, in µg/mL, no unit after it.

Exercise: Recorded MIC P. aeruginosa PAO1 […] 7.4 for CC(C)CN(CC(N)=O)C(=O)CN(CC(C)C)C(=O)CN(CC(C)C)C(=O)CN(CCCCN)C(=O)CN(CC(C)C)C(=O)CN(CC(C)C)C(=O)CN(CCCCN)C(=O)CN(CC(C)C)C(=O)CN(CC(C)C)C(=O)CN(CCCCN)C(=O)CNCCCCN [EB11, kkllkllklll] (H-[Nlys][Nlys][Nleu][Nleu][Nlys][Nleu][Nleu][Nlys][Nleu][Nleu][Nleu]-NH2) , please?
Key: 8

Exercise: Try this compound next: CC(C)C[C@H](NC(=O)CN(CC(C)C)C(=O)[C@H](CCCCN)NC(=O)CNCCCCN)C(=O)N(CCCCN)CC(=O)N[C@@H](CC(C)C)C(=O)N(CC(=O)N[C@@H](CCCCN)C(=O)N(CC(=O)N[C@@H](CC(C)C)C(=O)N(CC(N)=O)CC(C)C)CC(C)C)CC(C)C [EB10, kKlLkLlKlLl] (H-[Nlys]K[Nleu]L[Nlys]L[Nleu]K[Nleu]L[Nleu]-NH2)
Key: 4

Exercise: Now this one: CC(C)C[C@H](NC(=O)CN(CCCCN)C(=O)[C@H](CC(C)C)NC(=O)[C@H](CC(C)C)NC(=O)[C@H](CCCCN)NC(=O)[C@H](CC(C)C)NC(=O)[C@H](CC(C)C)NC(=O)[C@H](CCCCN)NC(=O)CNCCCCN)C(=O)N[C@@H](CC(C)C)C(=O)N(CC(N)=O)CC(C)C [EB2, kKLLKLLkLLl] (H-[Nlys]KLLKLL[Nlys]LL[Nleu]-NH2)
Key: 16
